- Test system: K4 kissing-loop RNA reporter
- assay.procedure: apparent KD of K4 kissing-loop reporter; higher = weaker reporter binding
- conditions: Eterna round: R107; input ligand: tryptophan 2.4 mM
Provide the reported apparent KD of K4 kissing-loop reporter of each item.
Number only, in nM; omit the unit.

Exercise: Provide the documented apparent KD of K4 kissing-loop reporter with K4 kissing-loop RNA reporter as the system for CGAGUGAUGUUCGUUUAUUACUCUGUUUGACAGGAUAUGCGGAAACGCAGAAGGGUCACCUUUGAGUUAGACGGAGUUAUUUUUU [Ex FMN A 22]
Solution: 323

Exercise: What would you report for UUUCUUUUUUUGAUGUUUUUUGUAUAAUGGCAGGAUAUCGUAGAUGCGAGAAGGGCUUUUAUGCGUUAUGAGUGAUGUUUGUAGG [aaxazvmullin] ?
Solution: 256

Exercise: What would you report for GCAGUGAUGUUGCGAAUCGGCCAUGAUGCAGAGGAUAUCGUGCCUUCGAGAAGGUUGUAUAGAGGAUACGAUACUAUUAAUGACG [Same State FMN A GF 6] ?
Solution: 329

====

Provide the reported apparent KD of MS2 coat protein of each item.
- Test system: MS2 coat protein
- assay.procedure: apparent KD of MS2 coat protein; higher = weaker reporter binding
- conditions: Eterna round: R107; input ligand: tryptophan 2.4 mM
Give the number first and the unit second.

Exercise: Fill in the blank: the reported apparent KD of MS2 coat protein of AGACAUGAGGAUCACCCAUGUAGUACGGAUACCAGAUCCAGAUGCGUCCCUUGGCAGCUGUGGUACAGCGUUACAUCGCUCGUAG [Exclusion - Theophylline A (Freestyle 23)] is ____.
Solution: 18.6 nM

Exercise: What would you report for ACCGAGGCAAUGGAUACCAGUGCGCCACAAUCGUGCUUCAACAUGAGGAUCACCCAUGUGCACCCUUGGCAGCCAACGGGCUCAU [theeternabot_exclusion_MS2_Theo_B_19] ?
Solution: 19.9 nM

Exercise: What would you report for AGAGUUAGACAAAAGUCUAGCUCACCAGAAGGAGCGUCCGAAAGGACAGGUAGGUCGCUGGUGCAUGAGGAUCACCCAUGUUCCU [ArgAS 20 #OpenEnded #AlternativeMS2] ?
Solution: 150 nM

====

- Test system: K4 kissing-loop RNA reporter;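 note: bound reporter read as fluorescence of individual clusters on recovered sequencing chips by microscopy, with normalized cluster intensities fitted with a binding model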
- assay.procedure: apparent KD of K4 kissing-loop reporter; higher = weaker reporter binding
- conditions: Eterna round: R107; input ligand: arginine 13.2 mM
measured.attribute: apparent KD of K4 kissing-loop reporter (nM)
Number only, in nM; omit the unit.

Exercise: Fill in the blank: the reported apparent KD of K4 kissing-loop reporter of AAAAUAAAUCAGUGAUGUUGGUAUCCGGAUACCAGCGAUAAUCAUCGCCCUUGGCAGCCGUGGACGUACAAAAUAAGUACGUCCU [MatMod 16 - Jieux - Same State - Theophylline A] is ____.
Solution: 104

Exercise: What would you report for AAGUGUCAUUAGACACAGACUACAAUACGCUAGGAUAUGCUGAUAAGCAGAAGGAGUGAUGUUCCUUUCAAGUAGUCAAUUAAAU [FmnAX 22 Mat Inspired #SwitchBubble #StaticStem #K4Late] ?
Solution: 140

Exercise: What would you report for GUCAUCAGAUCGCAAGAUCUGAUAGCCGAUACCAGCGCGAAGGUGCGCCCUUGGCAGCGGCACCGAGUGAUGUUCGGUCAGACGG [#2 Same State - Theophylline A Attempt #4 (HarryS)] ?
Solution: 796

====

- System: MS2 coat protein
- assay.procedure: apparent KD of MS2 coat protein; higher = weaker reporter binding
- conditions: Eterna round: R107; input ligand: none
Entry flag: label 1 if apparent KD of MS2 coat protein reaches 30 nM; label 0 if it does not.

Exercise: Is reported apparent KD of MS2 coat protein greater than or equal to 30 nM here: CCAUGCAGGUCGGCCGCCACUACACACAUGAGGAUCACCCAUGUAGUUACUGGGUGAAGUGGCAGUAGGACCGGGACCUGCAUAU [Brourdmod11]
Solution: label 1

Exercise: What would you report for UCGGACAUGAGGAUCACCCAUGUAAAUCCUCGAGGACCGGUACGGCCGCCACUCGAACGAGUGGCGCGCGAGUGCGCACUCGCGC [aFa] ?
Solution: label 1

Exercise: What would you report for ACAUGAGGAUCACCCAUGUUAAGCAGGGUGCGAGGACCGGUACGGCCGCCACUCGGACAUUAUUACGAGUGAAUGGUAACGAUGU [#14 Exclusion Tryptophan A] ?
Solution: label 0

Exercise: What would you report for AUGCAUAGCCGAAGGAGCGCAAUAGAAUGACAUGAGGAUCACCCAUGUGUGUGAUGUGGAUUGCAGGUAGGUCGCGGAGUGGUAU [Exclusion - Arginine B (Freestyle 4)] ?
Solution: label 1

Exercise: What would you report for GCCUAGCAUCGAAGGAGCGCUGGUGAAACUGACUAAUAUACAUGAGGAUCACCCAUGUGCUAGCAGGUAGGUCGCGAUGCUAGGC [SSAB NP+V+V2 #11] ?
Solution: label 0

Exercise: What would you report for AACAACAAGGGAAGGAGCGCGAAUAAUAGACAUGAGGAUCACCCAUGUAUCAUGGGAUUAACGCAGGUAGGUCGCCCACAAACAA [#07 Exclusion - Arginine B] ?
Solution: label 1

====

- System: MS2 coat protein
- assay.procedure: apparent KD of MS2 coat protein; designed switch direction (-1 OFF switch, 1 ON switch): -1; higher = weaker reporter binding
- conditions: Eterna round: R95; input ligand: microRNA oligo, concentration not stated
Provide the reported apparent KD of MS2 coat protein of each item.
Number only, in nM; omit the unit.

Exercise: Fill in the blank: the reported apparent KD of MS2 coat protein of CGUCCUGAAGUGAGGAUAUUGUCUCGGAUACGAAACAAGAAGGCACAUGAGGAUCACCCAUGUAAACAGGACGA [Malc #30 mod 11] (puzzle: Brourd's mod of Exclusion 4) is ____.
Solution: 15.6

Exercise: What would you report for AAGAAACAUGAGGAUCACCCAUGUGAGGAUAUGACUAAGAAAAGAAAAGAAAGAAGAGUCAGAAGGCACAAAGG [salish99-ex1_r3_068] (puzzle: Exclusion 1) ?
Solution: 128

Exercise: What would you report for UAGUAGCAAGGAUAUACAGAGGAGAGGAUUGCAAGAGGUGGACAUGAGGAUCACCCAUGUAGAAGGUGCAGAGA [JR_Exclu2_Sub021] (puzzle: Exclusion 2) ?
Solution: 275

Exercise: What would you report for UCAAGCUUUAAGCGUGUGAACAUGAGGAUCACCCAUGUAUUUUAGGUAAUAAGUUCUUUUAUGUAUUCUCGUCUUAU [JR_SWV3TOV1_Sub094] (puzzle: Sensor v3, turn-off variant 1) ?
Solution: 39.1

Exercise: What would you report for UUUAUGUGAGGAUAUAGUACUCCUUCUAUUAUUAUUGAGUACUAGAAGGCACAUGAGGAUCACCCAUGUAGUAC [Ex4 - 3 - 37] (puzzle: Exclusion 4) ?
Solution: 24.3

Exercise: What would you report for GUGUAACUACACGGGCUCAACAUGAGGAUCACCCAUGUCAUACACGCAAGCUUUUCGCUUGUCUUAUCUGUCCGUGA [Mainesleed] (puzzle: Sensor v3, turn-off variant 1) ?
Solution: 14.2

Exercise: What would you report for CAUUUGUGAGGAUAUCAGGUGUGCUAGCGUACUGGUACAUCUGAGAAGGCACAUGAGGAUCACCCAUGUUCCUU [Mat - Exclusion 4 - Mod of JL - D36] (puzzle: Exclusion 4) ?
Solution: 12.8

Exercise: What would you report for GAAAAGGUAGGAUAUACGAUAAGAAAGGGUAGAUAAUAAACACAUGAGGAUCACCCAUGUAGAAGGACCAAAAG [salish99_ex2_r3_102] (puzzle: Exclusion 2) ?
Solution: 35.4

Exercise: What would you report for UAAAAGUCAGGAUAUGCGAGAGAUUGAAGUAUGGAAAGGUAGCAGAAGGGACAUGAGGAUCACCCAUGUGAGGA [JR_Exclu4_Sub095] (puzzle: Exclusion 4) ?
Solution: 31.7

Exercise: What would you report for AGAAAGGAAGGAUAUACAAGAAAGCUGGGCAACGUCUCAUAACAUGAGGAUCACCCAUGUAGAAGGUCCAGGAA [Tiusredi] (puzzle: Exclusion 2) ?
Solution: 21.2

Exercise: What would you report for GGUGGACAUGAGGAUCACCCAUGUGAGGAUAUCGGCUGGCUAGCGGCGGAUGGCUUCUCGAGAAGGCGCAUAGU [Exclusion 1 V81] (puzzle: Exclusion 1) ?
Solution: 62.7

====

- System: MS2 coat protein
- assay.procedure: apparent KD of MS2 coat protein; designed switch direction (-1 OFF switch, 1 ON switch): -1; higher = weaker reporter binding
- conditions: input ligand: microRNA oligo, concentration not stated
Provide the reported apparent KD of MS2 coat protein of each item.
Number only, in nM; omit the unit.

Exercise: Fill in the blank: the reported apparent KD of MS2 coat protein of AGUGUGGGAGGAUAUACAUGAGGAUCACCCAUGUGAGUUGGCUCACAUGCUACGCUUCGUAGAAGGCCCAAAGA [Reragebion] (Eterna round: R96, puzzle: Exclusion 3) is ____.
Solution: 86.2

Exercise: What would you report for ACGUGGGCCCUUAGUGAACAUGAGGAUCACCCAUGUAACCACAAGGAUAUCUACGCCAGCACGCGAGAGAAGGUGUGAAAUAAU [Maorbetiza] (Eterna round: R96, puzzle: Exclusion NG 3) ?
Solution: 35.4

Exercise: What would you report for CUAGCGAGUGUAGGAUAUCGGACUGUUUCAGUCUGAGAAGGACAUGAGGAUCACCCAUGUGAAGCUACGUGAGUAGCACGCUAG [JL ENG1 3.87] (Eterna round: R96, puzzle: Exclusion NG 1) ?
Solution: 18.3
